Tested on: HeLa
Assay: Cytotoxicity against human HeLa cells at 100 ug/ml by SRB assay
Assay type: functional, cell-based
Calls of active or inactive are those of the source. The calls are words filed in the database; no cut-off is given here.
recorded metric: Activity

Worked examples, 5 compounds total:
COc1cc(C)c2c3c1CO[C@H]1OC(=O)c4c(O)c(C)c(c(c41)O3)OC2=O inactive
COC(=O)c1c(C)cc(OC)c(CO)c1Oc1c(O)c(C)c(O)c2c1[C@@H](OC)OC2=O inactive
COc1cc(C)c2c(c1C=O)Oc1c(c(C)c(O)c3c1[C@@H](OC)OC3=O)OC2=O inactive
Cc1cc(O)cc(OC(=O)c2c(C)cc(O)cc2O)c1 inactive
COC(=O)/C=C/c1c(OC)cc(C)c(C(=O)OC)c1Oc1c(O)c(C)c(O)c2c1[C@@H](OC)OC2=O inactive

Please go through the list and note Activity for each compound.
1. COC(=O)c1c(C)cc(OC)c(/C=C/C(C)=O)c1Oc1c(O)c(C)c(O)c2c1[C@@H](OC)OC2=O
2. Cc1cc(O)cc(O)c1C(=O)Oc1cc(O)cc(C)c1C(=O)O

inactive
inactive
